Condition Label: 318.15 K; 101.33 kPa; Liquid; Sing-around technique in a fixed-path interferometer
Endpoint: speed of sound (m/s)
Hi! Could you send only the number? It should be in m/s, unit omitted.

Sample records with speed of sound:
> print(dat)
                                   molecule        endpoint    u  measured.result
1  CC[n+]1cccc(C)c1.O=S(=O)([N-]S(=O)(=O)C(F)(F)F)C(F)(F)F  speed of sound  m/s             1216
2  CC[n+]1ccccc1C.O=S(=O)([N-]S(=O)(=O)C(F)(F)F)C(F)(F)F  speed of sound  m/s           1255.4
3  CC[n+]1ccc(C)cc1.O=S(=O)([N-]S(=O)(=O)C(F)(F)F)C(F)(F)F  speed of sound  m/s           1219.2

Let's switch to this molecule now.
Lookup: What does the record list as speed of sound for CC[n+]1ccccc1.O=S(=O)([N-]S(=O)(=O)C(F)(F)F)C(F)(F)F [1-ethylpyridinium bis[(trifluoromethyl)sulfonyl]imide] ?
Found: 1225

Values compiled from the NIST ThermoML archive (doi:10.1016/j.jct.2015.02.020).
